assay: Ionization constant, pKa of the compound; type: physicochemical
observed-property: pKa
# print the numeric value only

Below are worked cases with known answers.
INSERT INTO results (compound, result_value) VALUES
  ('COc1ccccc1NC(=O)C1CN(C)C(=O)C1=O (stereo not given)', 6.08),
  ('CN1CC(C(=O)Nc2ccccc2)C(=O)C1=O (stereo not given)', 5.86),
  ('O=C(Nc1ccccc1C(F)(F)F)C1CN(c2ccccc2)C(=O)C1=O (stereo not given)', 5.87);

**Query** Indicate its recorded pKa; the compound in question is COc1ccccc1NC(=O)C1CN(c2ccccc2)C(=O)C1=O (stereo not given)
**Result** 6.19

**Query** Indicate its recorded pKa; the compound in question is CN1CC(C(=O)Nc2ccc(Cl)cc2)C(=O)C1=O (stereo not given)
**Result** 5.51

**Query** Indicate its recorded pKa; the compound in question is CCOC(=O)c1ccccc1NC(=O)C1CN(C)C(=O)C1=O (stereo not given)
**Result** 6.49

**Query** Indicate its recorded pKa; the compound in question is O=C(Nc1ccccc1)C1CN(c2ccccc2)C(=O)C1=O (stereo not given)
**Result** 5.58

====

assay: Ionization constant, pKa of the compound; type: physicochemical
Some compounds, each annotated with its measured pKa.
# print the numeric value only

Below are worked cases with known answers.
INSERT INTO results (compound, result_value) VALUES
  ('Cc1ccc(NC(=O)C2CN(C)C(=O)C2=O)cc1 (stereo not drawn)', 5.79),
  ('COc1ccc(NC(=O)C2CN(C)C(=O)C2=O)cc1 (stereo not drawn)', 5.84);

Please find the next compound below.
**Query** Indicate its recorded pKa; the compound in question is CN1CC(C(=O)Nc2ccc(F)cc2)C(=O)C1=O (stereo not drawn)
**Result** 5.55
